test system: DU-145 prostate; assay: NCI-60 one-dose screen, 48 h; settings: 10 µM unless noted
Compounds without any hit were thinned out: in the full panel of roughly 83,000, 20% have a hit. Active and inactive are the calls of the source. How the source made its calls: active means growth percent below 10; inactive means the rest.
Outcome codes: Y = active, N = inactive

| compound | answerLabel |
| --- | --- |
| CC1OC(n2c3ccccc3c3c4c(c5c6ccccc6[nH]c5c32)C(=O)N(CCN2CCOCC2)C4=O)CC(O)C1O (centres undefined) | N |
| COc1ccc(-c2cc(-c3ccc(OC)cc3)c3sc(=O)[nH]c3n2)cc1 | N |
| c1ccc(CCn2cccc2)nc1 | N |
| C/C(=N\Nc1ccc([N+](=O)[O-])cn1)c1ccc(N)cc1 | N |
| CC(=O)Nc1ccc(/C=N/N2CCCCCC2)cc1 | N |
| C=C1C(=O)O[C@H]2[C@H]1CC/C(COC(=O)NCc1[nH]nc3ccccc13)=C\CC[C@@]1(C)O[C@@H]21 | N |
| CN1C2CCC1/C(=C\c1ccc(F)cc1)C(=O)/C2=C/c1ccc(F)cc1 | Y |
| CCOC(=O)c1ccc(NC(=O)CSC(N)=O)cc1 | N |
| CCC1=CC2CN(C1)Cc1c([nH]c3ccccc13)[C@@](C(=O)OC)(c1cc3c(cc1OC)N(C)[C@H]1[C@@](O)(C(=O)OC)[C@H](OC(C)=O)[C@]4(CC)C=CCN5CC[C@]31[C@@H]54)C2 (some centres undefined) | Y |
